Tested on: Cavia porcellus
test summary: In vivo functional antagonistic activity in inhibiting BK (5 ug/kg, i.v.) induced bronchoconstriction in guinea pigs by 10 ug/kg iv administration

- smiles record: "CC(=O)Nc1ccc(/C=C/C(=O)NCC(=O)N(C)c2ccc(Cl)c(COc3cccc4c(N(C)C)cc(C)nc34)c2Cl)cn1.Cl"
  target desc: "Cavia porcellus"
  Inhibition, %: 89.4
- smiles record: "Cc1cc(N(C)C)c2cccc(OCc3c(Cl)ccc(N(C)C(=O)CNC(=O)/C=C/c4ccc(C(=O)Nc5ccncc5)cc4)c3Cl)c2n1.Cl"
  target desc: "Cavia porcellus"
  Inhibition, %: 86.3
- smiles record: "Cc1cc(N2CCOCC2)c2cccc(OCc3c(Cl)ccc(N(C)C(=O)CNC(=O)/C=C/c4ccc(C(=O)Nc5ccncc5)cc4)c3Cl)c2n1.Cl"
  target desc: "Cavia porcellus"
  Inhibition, %: 46.2
- smiles record: "Cc1cc(N(C)C)c2cccc(OCc3c(Cl)ccc(N(C)C(=O)CNC(=O)/C=C/c4ccc(C(=O)N(C)C)nc4)c3Cl)c2n1.Cl.Cl.Cl.Cl"
  target desc: "Cavia porcellus"
  Inhibition, %: 89.7

* * *

target desc: B2 bradykinin receptor (Homo sapiens, UniProt P30411)
Sequence (P30411 whole entry): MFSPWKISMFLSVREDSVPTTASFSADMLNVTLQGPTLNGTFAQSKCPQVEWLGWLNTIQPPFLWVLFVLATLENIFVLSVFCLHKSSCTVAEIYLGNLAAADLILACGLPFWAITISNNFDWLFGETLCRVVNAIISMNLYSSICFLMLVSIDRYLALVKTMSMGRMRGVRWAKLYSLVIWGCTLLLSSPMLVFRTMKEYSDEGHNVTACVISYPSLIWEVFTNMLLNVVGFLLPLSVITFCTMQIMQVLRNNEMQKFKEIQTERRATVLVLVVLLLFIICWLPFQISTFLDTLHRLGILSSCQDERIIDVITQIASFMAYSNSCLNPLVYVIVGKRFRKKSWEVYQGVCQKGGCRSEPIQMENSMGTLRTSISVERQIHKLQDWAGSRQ
test summary: Inhibition of specific binding of [3H]BK at 1 nM to human bradykinin receptor B2 expressed in CHO cells by 50%.
Catalogue of compounds with associated IC50

- smiles record: "CNC(=O)c1ccc(/C=C/C(=O)NCC(=O)N(C)c2ccc(Cl)c(COc3cccc4c(N5CCCCCC5)cc(C)nc34)c2Cl)cc1"
  readout units: "nM"
  IC50: 37
- smiles record: "Cc1cc(N2CCCCC2)c2cccc(OCc3c(Cl)ccc(N(C)C(=O)CNC(=O)/C=C/c4ccc(C(=O)Nc5ccncc5)cc4)c3Cl)c2n1.Cl"
  readout units: "nM"
  IC50: 0.52
- smiles record: "CC(=O)Nc1ccc(/C=C/C(=O)NCC(=O)N(C)c2ccc(Cl)c(COc3cccc4c(N5CCOCC5)cc(C)nc34)c2Cl)cn1"
  readout units: "nM"
  IC50: 1.8
- smiles record: "CNC(=O)c1ccc(/C=C/C(=O)NCC(=O)N(C)c2ccc(Cl)c(COc3cccc4c(N(C)C)cc(C)nc34)c2Cl)cn1.Cl"
  readout units: "nM"
  IC50: 1.6
- smiles record: "CNC(=O)c1ccc(/C=C/C(=O)NCC(=O)N(C)c2ccc(Cl)c(COc3cccc4c(N5CCOCC5)cc(C)nc34)c2Cl)cn1.Cl"
  readout units: "nM"
  IC50: 1.1
- smiles record: "CNC(=O)c1ccc(/C=C/C(=O)NCC(=O)N(C)c2ccc(Cl)c(COc3cccc4c(N5CCOCC5)cc(C)nc34)c2Cl)cc1.Cl.Cl.Cl.Cl"
  readout units: "nM"
  IC50: 2.7
- smiles record: "Cc1cc(N(C)C)c2cccc(OCc3c(Cl)ccc(N(C)C(=O)CNC(=O)/C=C/c4ccc(C(=O)Nc5ccncc5)cc4)c3Cl)c2n1.Cl"
  readout units: "nM"
  IC50: 0.7
- smiles record: "Cc1cc(N(C)C)c2cccc(OCc3c(Cl)ccc(N(C)C(=O)CNC(=O)Nc4cccc(C(=O)Nc5ccncc5)c4)c3Cl)c2n1.Cl"
  readout units: "nM"
  IC50: 2.2
- smiles record: "Cc1cc(N2CCOCC2)c2cccc(OCc3c(Cl)ccc(N(C)C(=O)CNC(=O)/C=C/c4ccc(N5CCCC5=O)cc4)c3Cl)c2n1.Cl.Cl.Cl.Cl"
  readout units: "nM"
  IC50: 1.8
